100 nM Ag Bound (RU) reference
Biological target: T1, mfNPR1-mFc:hANP complex (monkey; human, UniProt P01160 124-151)
T1 construct: also called monkey NPR1 complexed to ANP
Assay: SPR, mAb captured, 37C
Recorded Endpoint: 100 nM Ag Bound (RU)

>>> reported_measurement("mAb22035 (antibody, human IgG4, V domains shown) VH: EVQLVESGGGLVQPGRSLRLSCAASGFTFDDYAMHWVRQAPGKGLEWVSGISWNSGTIGYADSVKGRFTMSRDNAKNSLYLQMNSLRPEDTALYYCAKDMGVSLALWGAFDIWGQGTMVTVSS VL: DIQMTQSPSSLSASVGDKVTITCRASQNIRTYLNWYQQKPGKAPKVLISTASSLQSGVPSRFSGSGSGTDFTLTISSLQPEDFAVFYCQQSFGIPRTFGQGTKVEIK")
283
>>> reported_measurement("mAb22805 (antibody, human IgG4, V domains shown) VH: QVQLVESGGGVVQPGRSLRLSCAASGFTFSTYGMHWVRQAPGKGLEWVALIWNDGSNKYYADSVKGRFTISRDNSKNTLDLQMNSLRAEDTAVYYCARLNTRITGTTNLDYWGQGTLVTVSS VL: DIQMTQSPSSLSASVGDRVTVSCRASQSIANYLNWYQQKPGKAPNLLIYGAYTLQSGVPSRFRGSGSGTDFTLTISSLQPEDFATYYCQQTYSTPPITFGQGTRLEIK")
153
